- testSystem: Human recombinant monoamine oxidase MAO-B (Homo sapiens)
- Sequence (P27338 whole entry): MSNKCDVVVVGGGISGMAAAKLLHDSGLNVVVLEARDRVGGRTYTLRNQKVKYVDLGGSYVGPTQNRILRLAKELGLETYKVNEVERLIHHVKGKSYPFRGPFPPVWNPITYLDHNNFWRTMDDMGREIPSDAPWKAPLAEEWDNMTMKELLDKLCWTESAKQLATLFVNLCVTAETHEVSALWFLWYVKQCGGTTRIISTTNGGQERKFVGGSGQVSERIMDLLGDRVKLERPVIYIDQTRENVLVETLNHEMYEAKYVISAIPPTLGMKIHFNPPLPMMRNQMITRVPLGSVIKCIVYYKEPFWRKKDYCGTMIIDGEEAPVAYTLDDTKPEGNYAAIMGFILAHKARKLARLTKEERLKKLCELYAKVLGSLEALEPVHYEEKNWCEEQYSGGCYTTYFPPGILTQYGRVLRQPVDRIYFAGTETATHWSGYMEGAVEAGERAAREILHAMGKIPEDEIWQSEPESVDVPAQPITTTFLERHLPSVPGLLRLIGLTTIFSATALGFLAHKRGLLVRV
- protocolSummary: MAO-B inhibition, kynuramine fluorescence assay
pIC50: −log10 of the molar value.
assayMetric: pIC50

## Task Hello, please tell me recorded pIC50 for this one: N[C@H]1CC1c1ccc(-c2cccc(O)c2)cc1 (some centres unmarked)
## Result < 6.00

Now turn to the next compound.
## Task Hello, please tell me recorded pIC50 for this one: "CC(C)S(=O)(=O)Nc1cccc(-c2ccc([C@H]3C[C@@H]3N)cc2)c1"
## Result < 5.00

====

- System: K562 chronic myelogenous leukemia cells
- protocolSummary: In vitro cytotoxicity, fluorometry-based cell viability, K562
- measurementSetup: Homo sapiens, K562, 72 h, read-out: EC50 (μM), concentration at which 50% of the cells remain viable, K562, cell density A, 72h after compound addition
Consider the following molecules; for each one, report its EC50.
Give bare numbers, in µM.

Below are worked cases with known answers.
## Task Hello, please tell me recorded EC50 for this one: "N[C@H]1C[C@@H]1c1ccc(-c2cccc(NS(=O)(=O)c3ccccc3)c2)cc1"
## Result 14.8

## Task Hello, please tell me recorded EC50 for this one: "CC(C)S(=O)(=O)Nc1cccc(-c2ccc([C@H]3C[C@@H]3N)cc2)c1"
## Result 17.2

## Task Hello, please tell me recorded EC50 for this one: N[C@H]1CC1c1ccc(-c2cccc(O)c2)cc1 (stereo partly shown)
## Result 16.2

Now turn to the next molecule.
## Task Hello, please tell me recorded EC50 for this one: "CC(C)S(=O)(=O)Nc1cccc(-c2ccc([C@H]3C[C@@H]3N)cn2)c1"
## Result 31.5

====

Consider the following molecules; for each one, report its % platelets vs. Vehicle.
- Test system: platelets
- protocolSummary: Platelet levels in mice after 5 consecutive once daily injections
- Assay type: in vivo, mice (Hsd:Athymic Nude-Foxn1nu)
- measurementSetup: 10 mg/kg intraperitoneal once daily for 5 days, blood 60min after last dose
One number for each entry, in %.

Give measured % platelets vs. Vehicle for every item shown.
1. N[C@H]1C[C@@H]1c1ccc(-c2cccc(C(F)(F)F)c2)nc1
2. NC(=O)CN[C@H]1CC1c1ccc(OCc2ccccc2)cc1 (stereo partly shown)
3. CN1CCN(C(=O)CN[C@H]2C[C@@H]2c2ccc(OCc3ccccc3)cc2)CC1 (racemic)
4. N[C@H]1CCN(CCN[C@H]2C[C@@H]2c2ccc(-c3cccc(C(F)(F)F)c3)cc2)C1

## Result
19
66
5
87

====

- Tested on: K562 chronic myelogenous leukemia cells
- protocolSummary: In vitro cytotoxicity, fluorometry-based cell viability, K562
- measurementSetup: Homo sapiens, K562, 72 h, read-out: EC50 (μM), concentration at which 50% of the cells remain viable, K562, cell density 10xA, 72h after compound addition
Consider the following compounds; for each one, report its EC50.
Numbers only, in µM.

Below are worked cases with known answers.
## Task Give EC50 for "CC(C)S(=O)(=O)Nc1cccc(-c2ccc([C@H]3C[C@@H]3N)cc2)c1" tested on K562 chronic myelogenous leukemia cells.
## Result 19.7

## Task Give EC50 for "N[C@H]1C[C@@H]1c1ccc(-c2cccc(NS(=O)(=O)c3ccccc3)c2)cc1" tested on K562 chronic myelogenous leukemia cells.
## Result 17.4

## Task Give EC50 for "CC(C)S(=O)(=O)Nc1cccc(-c2ccc([C@H]3C[C@@H]3N)cn2)c1" tested on K562 chronic myelogenous leukemia cells.
## Result 95.1

Now turn to the next compound.
## Task Give EC50 for N[C@H]1CC1c1ccc(-c2cccc(O)c2)cc1 (stereo partly shown) tested on K562 chronic myelogenous leukemia cells.
## Result 16.8

====

- testSystem: Human recombinant monoamine oxidase MAO-A (Homo sapiens)
- Sequence (P21397 whole entry): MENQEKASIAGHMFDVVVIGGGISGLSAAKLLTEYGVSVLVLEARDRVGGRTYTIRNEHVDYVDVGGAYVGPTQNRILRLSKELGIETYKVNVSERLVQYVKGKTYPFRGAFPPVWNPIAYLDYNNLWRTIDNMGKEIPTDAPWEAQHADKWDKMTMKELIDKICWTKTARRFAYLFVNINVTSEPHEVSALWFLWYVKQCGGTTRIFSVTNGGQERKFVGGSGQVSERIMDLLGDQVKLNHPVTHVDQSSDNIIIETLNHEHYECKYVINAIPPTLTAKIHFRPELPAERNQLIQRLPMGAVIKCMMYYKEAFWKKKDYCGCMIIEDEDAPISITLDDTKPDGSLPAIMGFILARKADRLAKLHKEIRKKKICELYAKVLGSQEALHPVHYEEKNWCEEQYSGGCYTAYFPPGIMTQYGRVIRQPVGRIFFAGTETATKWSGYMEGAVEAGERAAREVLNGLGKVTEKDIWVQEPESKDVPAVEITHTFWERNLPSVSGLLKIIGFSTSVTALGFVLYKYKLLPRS
- protocolSummary: MAO-A inhibition, kynuramine fluorescence assay
assayMetric: IC50

Below are worked cases with known answers.
## Task Hello, please tell me recorded IC50 for this one: N[C@H]1CC1c1ccc(-c2cccc(O)c2)cc1 (stereo partly shown)
## Result > 1000 nM

## Task Hello, please tell me recorded IC50 for this one: NC(=O)CN[C@H]1CC1c1ccc(OCc2ccccc2)cc1 (stereo partly shown)
## Result > 2000 nM

## Task Hello, please tell me recorded IC50 for this one: "NC(=O)CN[C@@H]1C[C@H]1c1ccc(OCc2ccccc2)cc1"
## Result > 2000 nM

Now turn to the next compound.
## Task Hello, please tell me recorded IC50 for this one: "CC(C)S(=O)(=O)Nc1cccc(-c2ccc([C@H]3C[C@@H]3N)cc2)c1"
## Result > 1000 nM

====

- Tested on: K562 chronic myelogenous leukemia cells
- protocolSummary: In vitro cytotoxicity, fluorometry-based cell viability, K562
- measurementSetup: Homo sapiens, K562, 72 h, read-out: EC50 (μM), concentration at which 50% of the cells remain viable, K562, cell density 3xA, 72h after compound addition
assayMetric: EC50

## Task Hello, please tell me recorded EC50 for this one: "N[C@H]1C[C@@H]1c1ccc(-c2cccc(NS(=O)(=O)c3ccccc3)c2)cc1"
## Result 13.2 µM

## Task Hello, please tell me recorded EC50 for this one: N[C@H]1CC1c1ccc(-c2cccc(O)c2)cc1 (stereo partly shown)
## Result 10.3 µM

## Task Hello, please tell me recorded EC50 for this one: "CC(C)S(=O)(=O)Nc1cccc(-c2ccc([C@H]3C[C@@H]3N)cc2)c1"
## Result 16.3 µM

Now turn to the next compound.
## Task Hello, please tell me recorded EC50 for this one: "CC(C)S(=O)(=O)Nc1cccc(-c2ccc([C@H]3C[C@@H]3N)cn2)c1"
## Result 57.1 µM

====

Consider the following molecules; for each one, report its IC50.
- testSystem: LSD1 (Homo sapiens, UniProt O60341)

## Task Hello, please tell me recorded IC50 for this one: N[C@H]1CC1c1ccc(-c2cccc(O)c2)cc1 (some centres unmarked)
## Result < 70 nM

Now turn to the next molecule.
## Task Hello, please tell me recorded IC50 for this one: "CC(C)S(=O)(=O)Nc1cccc(-c2ccc([C@H]3C[C@@H]3N)cc2)c1"
## Result < 70 nM
